# Tested on: PRMT1 (protein arginine N-methyltransferase 1)
# Assay summary: PRMT1 binders on small-molecule microarrays, primary screen, biochemical, small-molecule microarray, 635 nm fluorescence (AID 1088);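 also: binding of Prmt1 protein to compounds spotted on small-molecule microarray slides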
# Cond: small-molecule microarray binding, higher = more signal
Could you label it 1 (yes) if measured composite z-score is 1 or higher, and 0 (no) otherwise?

Ask: Given the entry `CCC[C@@H]1C[C@@]1(CCC)[C@@H](NC(=O)OCc1ccccc1)c1ccc(-c2ccccc2)cc1` , answer whether its composite z-score meets or surpasses 1.
Result: 0 (no)

Ask: Given the entry `COC(=O)[C@@]1(Cc2ccc(F)cc2)[C@H]2c3cc(C(=O)N(C)C)n(Cc4cc(F)cc5c4OCOC5)c3C[C@H]2CN1C(=O)c1ccccc1` , answer whether its composite z-score meets or surpasses 1.
Result: 1 (yes)

Ask: Given the entry CC(=O)c1ccc(C(O)C2C=CC3C(=O)N(c4ccccc4)C(=O)C3N2Nc2ccc(C#N)cc2)cc1 (configuration not stated) , answer whether its composite z-score meets or surpasses 1.
Result: 0 (no)

Ask: Given the entry `CC(C)(C)OC(=O)CC[C@]1(C(=O)NCc2ccccc2)N=C(c2ccc(OCCCO)cc2)O[C@H]1c1ccccc1CN=[N+]=[N-]` , answer whether its composite z-score meets or surpasses 1.
Result: 1 (yes)

Ask: Given the entry `COc1ccc([Si](C)(C)[C@@H]2[C@@H](CC(=O)N(CCO)Cc3ccccc3)O[C@]3(C(=O)N(Cc4cccc(N5C(=O)c6cccc7cccc5c67)c4)c4ccccc43)[C@H]2C)cc1` , answer whether its composite z-score meets or surpasses 1.
Result: 0 (no)

Ask: Given the entry `CN(C)C(=O)[C@@]1(CCS(=O)(=O)c2ccccc2)N=C(c2ccc(OCCCO)cc2)O[C@H]1c1ccccc1` , answer whether its composite z-score meets or surpasses 1.
Result: 1 (yes)

###

# Assay summary: binders of probe aFGF2 on microarray, primary screen, stem cell growth factor project, biochemical, small-molecule microarray, fluorescence 635/667 (AID 1067);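 also: measures binding of biotinylated aFGF2 protein to printed compounds on slides; z-score merges feature fluorescence and signal-to-noise across triplicate slides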
# Cond: higher = more signal
Assay metric: composite z-score
I only need the number, thanks.

Ask: For the molecule `CC(C)C[C@@H]1NC(=O)[C@@H]2C[C@H](C(=O)NCCCCN(C)C)[C@H](c3cccc(OCCO)c3)N2C1=O` , give its reported composite z-score.
Result: -0.143

Ask: For the molecule `O=C1O[C@H](c2ccccc2)[C@H](c2ccccc2)N2[C@H]1[C@@H](C(=O)O)[C@]1(C(=O)Nc3ccc(C#CC4=CCCCC4)cc31)[C@H]2c1ccc(O)cc1` , give its reported composite z-score.
Result: -0.0899

Ask: For the molecule `[N-]=[N+]=NCc1ccccc1[C@H]1OC(c2ccc(OCCCO)cc2)=N[C@@]1(CCS(=O)(=O)c1ccccc1)C(=O)N1CCCCC1` , give its reported composite z-score.
Result: 0.248

Ask: For the molecule CC[C@H]1C2=C3C(CC[C@H]4C(OCc5ccc(F)cc5C(F)(F)F)OC[C@](C)([C@@H]34)N(C(=O)OC(C)(C)C)C2)C(COC)C1COC (some centres not stated) , give its reported composite z-score.
Result: 0.0253

Ask: For the molecule N#Cc1ccc(NN2C(C(O)c3ccc(F)cc3)C=CC3C(=O)N(c4ccccc4)C(=O)C32)cc1 (configuration not stated) , give its reported composite z-score.
Result: 0.183

Ask: For the molecule CCCCCCCCCCC(O)C1C=CC2C(=O)N(C)C(=O)C2N1Nc1ccc([N+](=O)[O-])cc1[N+](=O)[O-] (configuration not stated) , give its reported composite z-score.
Result: 0.0772

Ask: For the molecule `O=C1O[C@H](c2ccccc2)[C@H](c2ccccc2)N2[C@H]1[C@@H](C(=O)N1CCN(c3ncccn3)CC1)[C@]1(C(=O)Nc3ccc(C#CC4(O)CCCCCC4)cc31)[C@H]2c1ccc(OCCO)cc1` , give its reported composite z-score.
Result: 0.0583
